- Test system: ACHN renal
- MEASUREMENT_DESCRIPTION: NCI tumour cell line growth inhibition, 48 h
Hi there, I'd appreciate the recorded TGI for every entry that follows.

COMPOUND	RESULT
CC(C)N(C(C)C)[PH+]1O[PH+](N(C(C)C)C(C)C)O[PH+](N(C(C)C)C(C)C)O[PH+](N(C(C)C)C(C)C)O1.[C-]#[O+].[C-]#[O+].[C-]#[O+].[C-]#[O+].[C-]#[O+].[C-]#[O+].[C-]#[O+].[C-]#[O+].[Mo].[Mo] (centres undefined)	> 100 µM
O=C1C(Cl)C2(CC(/C=C/c3cccs3)=NN2c2cccc(S(=O)(=O)O)c2)N1c1nc2ccccc2s1 (centres undefined)	> 100 µM
O=C(c1ccccc1)c1ccc2cccc(OC3OC(CO)C(O)C(O)C3O)c2n1 (centres undefined)	> 100 µM
O=C(Nc1ccc(Cl)cc1)Nc1ccc(Cl)c(C(F)(F)F)c1	12.1 µM
COc1cc(S(=O)(=O)Nc2nc(-c3ccc(N4C(=O)/C(=C\c5cccs5)N=C4c4ccccc4)cc3)cs2)ccc1Cl	> 100 µM

I need TGI for every entry listed below, if you could help.
1. NCCCCCn1c2c(c3ccccc3c1=O)C(=O)c1ccccc1-2
2. NC(=O)c1cn(C2OC(CO)C(O)C2O)c(=O)[nH]c1=O (centres undefined)
3. O=C1OCCC1(Cc1ccc(Cl)cc1)Cc1ccc(Cl)cc1

["0.909 µM", "> 100 µM", "> 100 µM"]

Short answer please: TGI, ACHN renal, entry CC1OC(Oc2c(-c3cc(O)c(O)c(O)c3)oc3cc(O)cc(O)c3c2=O)C(O)C(O)C1O (centres undefined) > 100 µM

---

- Tested on: RPMI-8226 leukemia
- MEASUREMENT_DESCRIPTION: NCI tumour cell line growth inhibition, 48 h
METRIC: log10 TGI (log10 of the value in µM)
Lab note - TGI converted to log10 from values in µM.

COMPOUND	RESULT
O=[N+]([O-])/C(C(Cl)=C(Cl)Cl)=C(/Br)SCc1ccccc1	0.53
Clc1ccccc1/C=C/c1ccnc2ccccc12	1.56
O=C(CN(/C=C/C(=O)C(F)(F)F)c1ccc(Cl)cc1)c1ccc(F)cc1	1.71
CC(CCOc1ccc2ccc(=O)oc2c1)C1=CC(=O)C(C)(C)O1 (stereo unspecified)	0.86
c1ccc2nc(N/N=C3\CCCCC3C3CCCCC3)ccc2c1 (stereo unspecified)	0.68

I am curious: what log10 TGI value has been reported for O=C(Nc1nnc(-c2ccc(Cl)cc2)o1)C(SC(=S)N1CCCCC1)c1ccccc1 (stereo unspecified) ? 1.58

---

- Tested on: MOLT-4 leukemia
- MEASUREMENT_DESCRIPTION: NCI tumour cell line growth inhibition, 48 h
METRIC: TGI

Sample records with TGI:
SMILES_STRING	TGI
CC(=O)/C=c1\[nH]/c(=C\C=C\c2ccccc2)c(=O)n1/C=C1\C(=O)Oc2ccccc2C1=O	> 100 µM
Cn1c(-c2ccncc2)c(-c2ccc(F)cc2)c2ncccc21	> 25 µM

The record that follows has no TGI shown yet.
Please report the recorded TGI for Cn1nc(-c2cccc(-c3nn(C)c(=NCCO)s3)n2)sc1=NCCO . > 100 µM

---

- Test system: T-47D breast
- MEASUREMENT_DESCRIPTION: NCI tumour cell line growth inhibition, 48 h; in the data active means GI50 below about 0.43 µM; inactive means the rest
The reply should be one of these categories: true (active), false (inactive)

Below are worked cases with known answers.
COMPOUND	LABEL_CLASS
N#C/C(=C\c1ccc(Br)cc1)n1nnc2c(F)cccc21	true
NCCCCCn1c2c(c3ccccc3c1=O)C(=O)c1ccccc1-2	false
c1ccc2nc(N/N=C3\CCCCC3C3CCCCC3)ccc2c1 (configuration not stated)	false
O=C(O)c1ccc(NCc2nc3cc(Cl)c(Cl)cc3[nH]2)cc1	false
COc1ccc(/C=C2\COc3ccc(O)c(O)c3C2=O)cc1	false

Could you check what this test reported for COc1cc2cnc3c(c2c(OC)c1OC)Cc1cc2c(cc1-3)OCO2 ? false

Dear colleague, could you share the recorded outcome for COc1ccc(C2C=C(c3ccc(OC)c(OC)c3)N=C3SC=CN32)c(Br)c1 (configuration not stated) when you have a moment? false
